- methodSummary: Toxicity in non-tumor BDF1 mice (Table 6)
- Format: in vivo, mouse
- settings: mouse, in vivo; Single ip dose
assayReadout: LD50 (mg/kg)
Give just the number in mg/kg; leave the unit off.

So what's the measured LD50 for this one? Nc1ncnc2c1nc(Cl)n2[C@@H]1O[C@@H]2COP(=O)(O)O[C@H]2[C@H]1O [8-Cl-cAMP-Na^+]
195

* * *

- System: LS-174T human colon carcinoma cells
- methodSummary: Growth inhibition of LS-174T cells (Example 4, Table 18)
- Format: cell-based
- settings: LS-174T
- Procedure: LS-174T human colon carcinoma cells were obtained from the National Cancer Institute, Division of Cancer Treatment, Bethesda, Md., and were grown in Eagle's minimum essential medium supplemented with 10% heat-inactivated fetal bovine serum, Eagle's minimum essential medium nonessential amino acids, 20 mM 4-(2-hydroxyethyl)-1-piperazineethanesulfonic acid, 2mM glutamine, and penicillin-streptomycin (Gibco). […] and 50 μM analogue concentrations were determined from […]

{"molecule": "Nc1ncnc2c1ncn2[C@@H]1O[C@@H]2CO[P@](O)(=S)O[C@H]2[C@H]1O [Sp-cAMPS]", "assayedSystem": "LS-174T human colon carcinoma cells", "growth inhibitory potency": "least potency"}
{"molecule": "Nc1nc(Cl)nc2c1ncn2[C@@H]1O[C@@H]2CO[P@](O)(=S)O[C@H]2[C@H]1O [Sp-2-Cl-cAMPS]", "assayedSystem": "LS-174T human colon carcinoma cells", "growth inhibitory potency": "least potency"}
{"molecule": "CCSc1ncnc2c1ncn2[C@@H]1O[C@@H]2CO[P@](O)(=S)O[C@H]2[C@H]1O [Sp-6-SET-cPMPS]", "assayedSystem": "LS-174T human colon carcinoma cells", "growth inhibitory potency": "moderate potency"}
{"molecule": "Nc1ncnc2c1nc(Cl)n2[C@@H]1O[C@@H]2CO[P@](O)(=S)O[C@H]2[C@H]1O [Sp-8-Cl-cAMPS]", "assayedSystem": "LS-174T human colon carcinoma cells", "growth inhibitory potency": "moderate potency"}
